Reference source for all entries: patent US20090326008A1

Test system: IL-8
Experiment: Relative IL-8 mRNA expression in IL-1β-stimulated MKN-45 cells (real-time PCR)
Type: cell-based, human
Settings: IL-1β-stimulated DMSO-treated cells = 100%, ACTB reference
Description: RNA was extracted from the cells used in Example 2 according to the manufacturer's protocol for ABI Prism 6100 Nucleic Acid PrepStation (a nucleic acid isolation system, product of Applied Biosystems). […] Absorbance of the collected RNA solution at 260 nm was measured using a microplate spectrophotometer (“SpectraMax Plus”, product of Molecular Devices) with an analysis software (“SOFTmaxPRO ver.3.1.2”, product of Molecular Devices), and the RNA concentration was determined from the absorbance. […]
Below: a set of entries, each annotated with reported IL-8 relative mRNA expression level, Mean.
Output spec: scalar in %, unitless text.

{"compound": "O=C1NC(=O)C(Cc2cccc3c2CCC(=O)N3Cc2ccc(Br)cc2)S1 (stereo not shown) [Test Compound 134]", "system-name": "IL-8", "result-units": "%", "number": 55.4}
{"compound": "COc1ccc(CC2SC(=O)NC2=O)c2c1N(CC1CCN(c3ccc(C)cc3)CC1)C(=O)CC2 (stereo not shown) [Test Compound 164]", "system-name": "IL-8", "result-units": "%", "number": 24.8}
{"compound": "COc1ccc(CC2SC(=O)NC2=O)c2c1N(Cc1ccc(NS(C)(=O)=O)cc1)C(=O)CC2 (stereo not shown) [Test Compound 131]", "system-name": "IL-8", "result-units": "%", "number": 77.9}

Field request: IL-8 relative mRNA expression level, Mean | item: Cc1ccc(CC(=O)N2CCC(CCN3C(=O)CCc4c(CC5SC(=O)NC5=O)cccc43)CC2)cc1 (stereo not shown) [Test Compound 616]
35.3

Fill in: IL-8 relative mRNA expression level, Mean of COc1ccc(CC2SC(=O)NC2=O)c2c1N(Cc1ccc(NC(=O)OCc3ccccc3)cc1)C(=O)CC2 (stereo not shown) [Test Compound 234] is ___
28.3

Which IL-8 relative mRNA expression level, Mean value belongs to COc1ccc(CC2SC(=S)NC2=O)c2c1N(Cc1ccc3ccccc3c1)C(=O)CC2 (stereo not shown) [Test Compound 971] ?
55.9

Recorded IL-8 relative mRNA expression level, Mean for CCNC(=O)CCCN1C(=O)CCc2c(CC3SC(=O)NC3=O)ccc(OC)c21 (stereo not shown) [Test Compound 613] , please?
91.5
